Ki reference
Target: human V1a receptor (Homo sapiens)
Construct: expressed in transfected cells; host or cells: HEK293 cells, transiently transfected; cell membranes
Sequence (P37288 whole entry): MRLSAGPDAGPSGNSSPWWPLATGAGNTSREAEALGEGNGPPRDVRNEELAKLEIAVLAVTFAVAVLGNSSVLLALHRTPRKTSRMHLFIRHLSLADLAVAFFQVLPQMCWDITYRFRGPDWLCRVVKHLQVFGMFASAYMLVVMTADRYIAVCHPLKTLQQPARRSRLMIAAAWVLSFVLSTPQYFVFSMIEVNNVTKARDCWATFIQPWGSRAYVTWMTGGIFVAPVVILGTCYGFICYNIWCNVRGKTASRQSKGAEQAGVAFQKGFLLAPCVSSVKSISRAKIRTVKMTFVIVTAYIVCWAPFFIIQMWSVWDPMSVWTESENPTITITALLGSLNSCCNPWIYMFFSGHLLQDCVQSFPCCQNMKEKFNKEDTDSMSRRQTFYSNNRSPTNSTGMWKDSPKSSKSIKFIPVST
Experiment: human V1a receptor binding studies (3H-Vasopressin, SPA beads)
Conditions: membranes from HEK293 cells transiently transfected with human V1a receptor, Ki calculated from IC50 by the Cheng-Prussoff equation, read-out: pKi (hV1a) (converted)

- MOL SMILES: "Clc1ccc2c(c1)CNCc1nnc([C@H]3CC[C@H](c4cccnc4)CC3)n1-2"
  UNIT SYMBOL: "nM"
  Ki: 33.9
- MOL SMILES: "Cc1cccc([C@H]2CC[C@H](c3nnc4n3-c3ccc(Cl)cc3CNC4)CC2)n1"
  UNIT SYMBOL: "nM"
  Ki: 13.8
- MOL SMILES: "CC(C)c1cccc([C@H]2CC[C@H](c3nnc4n3-c3ccc(Cl)cc3CN(C(=O)OC(C)(C)C)C4)CC2)n1"
  UNIT SYMBOL: "nM"
  Ki: 2.19
- MOL SMILES: "COc1cccc([C@H]2CC[C@H](c3nnc4n3-c3ccc(Cl)cc3CNC4)CC2)n1"
  UNIT SYMBOL: "nM"
  Ki: 56.2
- MOL SMILES: "CC(C)(C)OC(=O)N1Cc2cc(Cl)ccc2-n2c(nnc2[C@H]2CC[C@H](c3ncccc3Cl)CC2)C1"
  UNIT SYMBOL: "nM"
  Ki: 0.501
- MOL SMILES: "CC(C)(C)OC(=O)N1Cc2cc(Cl)ccc2-n2c(nnc2[C@H]2CC[C@@H](c3ncccc3F)CC2)C1"
  UNIT SYMBOL: "nM"
  Ki: 5.01
- MOL SMILES: "Fc1cccnc1[C@H]1CC[C@@H](c2nnc3n2-c2ccc(Cl)cc2CNC3)CC1"
  UNIT SYMBOL: "nM"
  Ki: 200
- MOL SMILES: "CC(C)(C)OC(=O)N1Cc2cc(Cl)ccc2-n2c(nnc2[C@H]2CC[C@H](c3cccnc3)CC2)C1"
  UNIT SYMBOL: "nM"
  Ki: 0.603
- MOL SMILES: "COc1cccc([C@H]2CC[C@H](c3nnc4n3-c3ccc(Cl)cc3CN(C)C4)CC2)n1"
  UNIT SYMBOL: "nM"
  Ki: 3.31
- MOL SMILES: "CN1Cc2cc(Cl)ccc2-n2c(nnc2[C@H]2CC[C@H](c3ncc(F)cc3F)CC2)C1"
  UNIT SYMBOL: "nM"
  Ki: 1.29
- MOL SMILES: "CN1Cc2cc(Cl)ccc2-n2c(nnc2[C@H]2CC[C@@H](c3ncccn3)CC2)C1"
  UNIT SYMBOL: "nM"
  Ki: 95.5
- MOL SMILES: "CNCCN1Cc2cc(Cl)ccc2-n2c(nnc2[C@H]2CC[C@H](c3ncccc3F)CC2)C1"
  UNIT SYMBOL: "nM"
  Ki: 28.2
